Origin of values: the supplement of paper PMC5412046

Test system: SB.msgc-1
testSummary: viability at highest tested concentration (MAXR) relative to DMSO; higher = less cytotoxic
recordedConditions: SB.msgc-1 (sporadic gastric cancer)
viability values, listed per item

[
  {
    "compound": "Cn1c(Nc2ccc(C(F)(F)F)cc2)nc2cc(Oc3ccnc(-c4nc(C(F)(F)F)c[nH]4)c3)ccc21 [CHIR-265] (top concentration 46.0829 µM)",
    "viability": "48.9%"
  },
  {
    "compound": "COc1ccc(-c2c(-c3ccc(O)cc3O)n[nH]c2C)cc1 [PDHK RIKEN] (top concentration 92.1659 µM)",
    "viability": "66.6%"
  },
  {
    "compound": "Cc1ccc(NC(=O)C2(c3ccc4c(c3)OC(F)(F)O4)CC2)nc1-c1cccc(C(=O)O)c1 [Lumacaftor] (top concentration 46.0829 µM)",
    "viability": "25.3%"
  },
  {
    "compound": "O=C(O)/C=C/c1ccc(O)c(O)c1 [Caffeic acid] (top concentration 46.0829 µM)",
    "viability": "43.4%"
  },
  {
    "compound": "C/C=C1\\NC(=O)[C@H]2CSSCC/C=C\\[C@H](CC(=O)N[C@H](C(C)C)C(=O)N2)OC(=O)[C@H](C(C)C)NC1=O [Romidepsin] (top concentration 46.0829 µM)",
    "viability": "4.4%"
  },
  {
    "compound": "COc1nccc(-c2c(-c3ccc(F)cc3)ncn2C2CCC(O)CC2)n1 (centres undefined) (top concentration 46.0829 µM)",
    "viability": "101%"
  },
  {
    "compound": "COc1ccc2cc(-c3[nH]c(-c4ccc([S+](C)[O-])cc4)nc3-c3ccncc3)ccc2c1 (centres undefined) [Tie-2 kinase inhibitor] (top concentration 46.0829 µM)",
    "viability": "49.6%"
  },
  {
    "compound": "O=C1[O][Pt]2([NH]C3CCCCC3[NH]2)[O]C1=O (centres undefined) [Oxaliplatin] (top concentration 46.0829 µM)",
    "viability": "57.1%"
  },
  {
    "compound": "COc1ccnc(C[S+]([O-])c2nc3cc(OC(F)F)ccc3[nH]2)c1OC (centres undefined) [Pantoprazole] (top concentration 46.0829 µM)",
    "viability": "91.6%"
  },
  {
    "compound": "CN(C)CCOc1ccc(/C(=C(/CCCl)c2ccccc2)c2ccccc2)cc1 [Toremifene] (top concentration 46.0829 µM)",
    "viability": "1.34%"
  }
]

Recorded viability for Nc1n[nH]c2nnc(-c3c(-c4ccccc4)nn4ccccc34)cc12 (top concentration 46.0829 µM) with SB.msgc-1, please?
14.2%

What viability appears in the records for this compound with SB.msgc-1? COc1c(C)c2c(c(O)c1C/C=C(\C)CCC(=O)OCCN1CCOCC1)C(=O)OC2 [Mycophenolate mofetil] (top concentration 46.0829 µM)
55.1%

Missing value: viability, SB.msgc-1, entry CN(c1nccc(=O)[nH]1)C1CCN(c2nc3ccccc3n2Cc2ccc(F)cc2)CC1 [Mizolastine] (top concentration 46.0829 µM) . Fill in?
31.2%

Notebook: pull reported viability for SB.msgc-1, entry OC1=CC2=C(C(=C1)O)C(=O)\C(=C(/O2)C3=CC(=C(O)C(=C3)O)O)O [Myricetin] (top concentration 46.0829 µM)
100%

Lab note: need viability with SB.msgc-1 for entry Cc1nc(-c2ccc(OCC(C)C)c(C#N)c2)sc1C(=O)O [Febuxostat] (top concentration 46.0829 µM) , please look it up.
104%
